Known inhibition at 10 µM of a selection of compounds
system tested: ERK5 (Homo sapiens, UniProt Q13164)
Construct: screened for activity against several kinases in Jurkat cells; endogenous in cells; host or cells: Jurkat cell lysate
Sequence (Q13164 whole entry): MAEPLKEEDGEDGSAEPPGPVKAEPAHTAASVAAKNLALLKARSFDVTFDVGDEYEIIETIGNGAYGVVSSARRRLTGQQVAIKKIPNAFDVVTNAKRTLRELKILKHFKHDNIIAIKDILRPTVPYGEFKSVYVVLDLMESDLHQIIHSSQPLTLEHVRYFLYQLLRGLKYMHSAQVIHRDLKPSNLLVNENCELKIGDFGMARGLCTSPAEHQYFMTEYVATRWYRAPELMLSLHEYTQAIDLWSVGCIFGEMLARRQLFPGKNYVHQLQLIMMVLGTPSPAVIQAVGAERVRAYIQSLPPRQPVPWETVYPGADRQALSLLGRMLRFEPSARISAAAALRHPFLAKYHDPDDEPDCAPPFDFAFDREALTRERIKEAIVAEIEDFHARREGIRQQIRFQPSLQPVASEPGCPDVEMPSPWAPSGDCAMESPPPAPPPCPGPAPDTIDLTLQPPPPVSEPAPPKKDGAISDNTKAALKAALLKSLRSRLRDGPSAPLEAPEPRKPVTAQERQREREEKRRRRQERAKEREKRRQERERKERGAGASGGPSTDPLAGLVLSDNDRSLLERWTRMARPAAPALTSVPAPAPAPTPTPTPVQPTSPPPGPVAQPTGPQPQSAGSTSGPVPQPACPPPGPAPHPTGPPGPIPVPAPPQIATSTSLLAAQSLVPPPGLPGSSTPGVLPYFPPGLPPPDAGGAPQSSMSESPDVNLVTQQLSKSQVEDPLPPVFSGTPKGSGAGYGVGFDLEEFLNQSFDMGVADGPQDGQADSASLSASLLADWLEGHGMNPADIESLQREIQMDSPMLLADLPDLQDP
protocol description: Probe-based (AX9989 acyl phosphate ATP probe) kinase profiling in Jurkat lysate: ERK5
Assay type: binding
condition: screening concentration 10 μM; read-out: ERK5 Inhibition % at indicated screening concentration

Some compounds with known inhibition at 10 µM results, for comparison:
compound | inhibition at 10 µM
CCOc1cc(C(=O)N2CCOCC2)ccc1Nc1cc2c(cn1)N(C)C(=O)c1ccccc1S2(=O)=O [Compound T84] | 75 to 90%
CCOc1cc(C(=O)N2CCC(NCCF)C2)ccc1Nc1cc2c(cn1)N(C)C(C(F)(F)F)c1ccccc1N2C (stereo not drawn) [Compound T54] | 50 to 75%

Let us examine a further case.
// sample CCOc1cc(C(=O)N2CCC(N3CCCC3)CC2)ccc1Nc1cc2c(cn1)N(C)C(=O)N1C=CC=CC1=N2 [Compound T66] , its inhibition at 10 µM was 35 to 50%

###

system tested: recombinant human ERK5 catalytic domain (Homo sapiens)
Construct: Recombinant human ERK5 catalytic domain radiometric assays; purchased Reaction Biology, Corp (Malvern, Pa.), which ran the assay as a service
Sequence (Q13164 55-347 limits assumed): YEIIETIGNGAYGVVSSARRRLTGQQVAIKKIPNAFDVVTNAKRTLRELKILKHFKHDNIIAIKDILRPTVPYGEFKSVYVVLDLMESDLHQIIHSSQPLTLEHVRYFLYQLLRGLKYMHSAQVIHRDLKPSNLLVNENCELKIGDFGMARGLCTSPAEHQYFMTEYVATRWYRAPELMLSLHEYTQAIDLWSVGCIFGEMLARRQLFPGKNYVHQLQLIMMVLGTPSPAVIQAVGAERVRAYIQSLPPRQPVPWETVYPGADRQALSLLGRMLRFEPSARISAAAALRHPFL
protocol description: Recombinant human ERK5 radiometric (HotSpot) assay
Assay type: biochemical
condition: 10 μM ATP, 20 μM myelin basic protein substrate; read-out: rhERK5 IC50
Method: In this example, potency of the compounds in recombinant human ERK5 was assayed. Recombinant human ERK5 catalytic domain radiometric assays were performed by Reaction Biology, Corp (Malvern, Pa.). The HotSpot radiometric assay is based on conventional filter-binding assays (Nature Biotechnology (2011) 29: 1039-1045). Compounds were tested at 20 μM down by ⅓ in a 10 point serial dilution series. […]
readout label: IC50

Some molecules with known IC50 results, for comparison:
smiles input | IC50
CCOc1cc(C(=O)N2CC[C@@H](N3CCN(C)CC3)C2)ccc1Nc1cc2c(cn1)N(C)C(=O)c1ccccc1N2C | 20 to 50 nM
CCOc1cc(C(=O)N2CCC[C@@H](N3CCCC3)C2)ccc1Nc1cc2c(cn1)N(C)C(=O)c1ccccc1N2C | 50 to 200 nM
CCO[C@H]1CC[C@H](Nc2cc3c(cn2)N(C)C(=O)c2ccccc2N3C)CC1 | 50 to 200 nM

Record CCOc1cc(C(=O)N2CCN[C@H](C)C2)ccc1Nc1cc2c(cn1)N(C)C(=O)c1ccccc1N2C / recombinant human ERK5 catalytic domain (Homo sapiens), IC50 recorded as < 20 nM

###

system tested: GCN5L2 (Homo sapiens)
Sequence (Q92830 728-832 limits assumed): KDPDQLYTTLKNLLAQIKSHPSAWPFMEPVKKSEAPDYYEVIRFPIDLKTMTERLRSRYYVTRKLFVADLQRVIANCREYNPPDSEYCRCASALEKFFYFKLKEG
protocol description: Bromodomain binding assay: GCN5L2
pKd: −log10 of the molar value.
Known pKd of a selection of compounds

compound | system tested | pKd
CCOc1cc(C(=O)N2CCC(N3CCCC3)CC2)ccc1Nc1cc2c(cn1)N(C)C(=O)c1ccccc1N2C [Compound 46] | GCN5L2 (Homo sapiens) | < 4.70

// sample CCOc1cc(C(=O)N[C@H]2CC[C@H](O)CC2)ccc1Nc1cc2c(cn1)N(C)C(=O)c1ccccc1N2C [Compound T62] , its pKd was < 4.70
